Each recorded value in this set is attributed to patent EP4628508A1.

# system tested: T1, human ILT4-ECD protein (human, UniProt Q8N423 22-460)
# T1 construct: also called HuILT4; LILRB2 (ILT4)
# T1 sequence (Q8N423 other isoform, or with tags, fused parts or gaps limits assumed): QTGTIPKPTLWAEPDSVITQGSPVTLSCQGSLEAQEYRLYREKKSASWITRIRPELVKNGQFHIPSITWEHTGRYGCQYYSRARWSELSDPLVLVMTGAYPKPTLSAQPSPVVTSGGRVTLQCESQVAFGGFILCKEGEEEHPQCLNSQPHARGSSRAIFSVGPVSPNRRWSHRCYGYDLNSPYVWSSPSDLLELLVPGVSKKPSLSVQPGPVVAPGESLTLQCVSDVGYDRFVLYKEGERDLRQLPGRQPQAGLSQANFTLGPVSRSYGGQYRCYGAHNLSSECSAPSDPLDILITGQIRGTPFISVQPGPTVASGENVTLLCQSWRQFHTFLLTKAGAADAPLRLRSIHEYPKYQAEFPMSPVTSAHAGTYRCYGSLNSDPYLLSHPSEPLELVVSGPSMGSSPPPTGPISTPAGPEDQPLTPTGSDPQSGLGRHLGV
# test details: BLI (Octet RED96e), antibody on AHC biosensor, HuILT4 at 100/50/25 nM
measurement name: Kd (nM)
The answer is to be given in nM; state only the numeric part.

Asked: Please give the measured Kd for this binder: PR302264-3 (antibody, human IgG4 S228P, kappa, V domains shown, PTM variant of PR302264, IgG4; also called PR302264-3 (IgG4)) VH: QVQLQQWGAGLLKPSETLSLTCAVYGGSLSGYYWSWIRQPPGKGLEWIGEITHSGGTNYNPSLKSRVTISVPTSKNQFSLKLTSVTAADTAVYYCARGQQQLDWYFDLWGRGTLVTVSS VL: EIVMTQSPATLSVSPGERATLSCRASQNIYSHLVWYQQKPGQAPRLLIYGASTRATGIPARFSGSGSGTEFTLTITSLQSEDFTVYYCQQYNDWPPITFGQGTRLEIRR
Given back: 0.351

Asked: Name the reported Kd value associated with the binder PR302264 (antibody, human IgG1, kappa, V domains shown, IgG1; also called PR302264 (IgG1)) VH: QVQLQQWGAGLLKPSETLSLTCAVYGGSLSGYYWSWIRQPPGKGLEWIGEINHSGGTNYNPSLKSRVTISVPTSKNQFSLKLTSVTAADTAVYYCARGQQQLDWYFDLWGRGTLVTVSS VL: EIVMTQSPATLSVSPGERATLSCRASQNIYSHLVWYQQKPGQAPRLLIYGASTRATGIPARFSGSGSGTEFTLTITSLQSEDFTVYYCQQYNDWPPITFGQGTRLEIRR
Given back: 0.242

Asked: State the recorded Kd for this entry: PR302264-2 (antibody, human IgG4 S228P, kappa, V domains shown, PTM variant of PR302264, IgG4; also called PR302264-2 (IgG4)) VH: QVQLQQWGAGLLKPSETLSLTCAVYGGSLSGYYWSWIRQPPGKGLEWIGEIAHSGGTNYNPSLKSRVTISVPTSKNQFSLKLTSVTAADTAVYYCARGQQQLDWYFDLWGRGTLVTVSS VL: EIVMTQSPATLSVSPGERATLSCRASQNIYSHLVWYQQKPGQAPRLLIYGASTRATGIPARFSGSGSGTEFTLTITSLQSEDFTVYYCQQYNDWPPITFGQGTRLEIRR
Given back: 0.0767

Asked: Given the entry PR001795 (antibody, V domains shown, also called control antibody PR001795 (Merck: US20180298096); MK-4830) VH: EVQLQQWGAGLLKPSETLSLTCAVYGGSFSGYYWSWIRQPPGKGLEWIGEINHAGSTNYNPSLKSRVTISVDTSKNQFSLKLSSVTAADTAVYYCARLPTRWVTTRYFDLWGRGTLVTVSS VL: ESVLTQPPSVSGAPGQRVTISCTGSSSNIGAGYDVHWYQQLPGTAPKLLIYGDSNRPSGVPDRFSVSKSGASASLAITGLQAEDEADYYCQSFDNSLSAYVFGGGTQLTVL , report its measured Kd.
Given back: 3.52

Asked: So what does the record say about Kd for PR302951 (antibody, human IgG1, kappa, V domains shown, IgG1; also called PR302951 (IgG1)) VH: EVQLLESGGGLVQPGGSLRLSCAASRFTFSTYAMSWVRQAPGKGLEWVSSISGSGFNTYYADSVKGRFTISSDSSKNTLYLQMNSLRAEDTAVYYCAKDRQWLVSSFDYWGQGTLVTVSS VL: DIQMTQSPSSLSASVGDRVTITCQASQDISNYLNWYQQKPGKAPKLLIYDASNLETGVPSRFSGSGSGTDFTFTISSLQPEDIATYYCQQYDNLITFGQGTRLEIKR ?
Given back: 0.256
